src = patent US20120010173A1

assay: Chemical stability in pharmaceutical solvents (weight % remaining in solution, LCMS); format: physicochemical; conditions: H2O (pH = 10), 14 days
Property measured: weight percentage that remained in solution (% w/w)

Observe how each entry below is paired with its result.
Indicate the recorded weight percentage that remained in solution value for this molecule: CCCCCCCCCC(=O)OCCOP(=O)([O-])OC(Cn1cncn1)(Cn1cncn1)c1ccc(F)cc1F.[Na+] [Example 2]
99.2

Fill in reported weight percentage that remained in solution for this entry: C[N+](C)(C)CCOP(=O)([O-])OC(Cn1cncn1)(Cn1cncn1)c1ccc(F)cc1F [Example 1]
100.0

Give the reported value of weight percentage that remained in solution for this record: CCCCCCCCCOP(=O)([O-])OC(Cn1cncn1)(Cn1cncn1)c1ccc(F)cc1F.[Na+] [Example 14]
99.9

P: CCCCCCCCCOCCOP(=O)([O-])OC(Cn1cncn1)(Cn1cncn1)c1ccc(F)cc1F.[Na+] [Example 3]
Q: CCCCCCCCCC(=O)OCC(COP(=O)([O-])OC(Cn1cncn1)(Cn1cncn1)c1ccc(F)cc1F)OC(=O)CCCCCCCCC.[Na+] (centres unmarked) [Example 4]
Could you point out whether the larger weight percentage that remained in solution belongs to P or to Q ? Please indicate the selected item by its label.
P

###

experiment: Chemical stability in pharmaceutical solvents (weight % remaining in solution, LCMS); format: physicochemical; settings: H2O (pH = 2), 2 days
Property measured: weight percentage that remained in solution (% w/w)

Check the records and state weight percentage that remained in solution for "CCCCCCCCCOP(=O)([O-])OC(Cn1cncn1)(Cn1cncn1)c1ccc(F)cc1F.[Na+]"
99.2

Retrieve weight percentage that remained in solution measured for "C[N+](C)(C)CCOP(=O)([O-])OC(Cn1cncn1)(Cn1cncn1)c1ccc(F)cc1F" and print it.
99.4

Let me know recorded weight percentage that remained in solution for "CCCCCCCCCOCCOP(=O)([O-])OC(Cn1cncn1)(Cn1cncn1)c1ccc(F)cc1F.[Na+]" , thanks.
95.0

Supply weight percentage that remained in solution value. Item: "CCCCCCCCCC(=O)OCCOP(=O)([O-])OC(Cn1cncn1)(Cn1cncn1)c1ccc(F)cc1F.[Na+]"
96.8

###

# solubility at 24 h annotations
assay: Solubility of fosfluconazole derivatives in pharmaceutical solvents (Table 2); type: physicochemical; details: aqueous with cosolvent or surfactant or cyclodextrin, thermodynamic from solid; H2O/Cremophor RH 40 (80/20), 25° C.

Previously resolved entries follow.
Supply measured solubility at 24 h of "C[N+](C)(C)CCOP(=O)([O-])OC(Cn1cncn1)(Cn1cncn1)c1ccc(F)cc1F" in your reply.
> 10000 µg/mL

Fill in solubility at 24 h for record CCOP(=O)(O[C@H]1CC[C@@]2(C)C(=CC[C@H]3[C@@H]4CC[C@H]([C@H](C)CCCC(C)C)[C@@]4(C)CC[C@@H]32)C1)OC(Cn1cncn1)(Cn1cncn1)c1ccc(F)cc1F (stereo partly drawn)
900 µg/mL

Note down solubility at 24 h recorded for CCCCCCCCCC(=O)OCC(COP(=O)([O-])OC(Cn1cncn1)(Cn1cncn1)c1ccc(F)cc1F)OC(=O)CCCCCCCCC.[Na+] (stereo not drawn)
> 10000 µg/mL

Continuing:
Name the recorded solubility at 24 h of the compound listed here: "CCCCCCCCCOP(=O)([O-])OC(Cn1cncn1)(Cn1cncn1)c1ccc(F)cc1F.[Na+]"
> 10000 µg/mL

Identify measured solubility at 24 h corresponding to "CCCCCCCCCOCCOP(=O)([O-])OC(Cn1cncn1)(Cn1cncn1)c1ccc(F)cc1F.[Na+]"
> 10000 µg/mL

Please give the documented solubility at 24 h of "CCCCCCCCCC(=O)OCCOP(=O)([O-])OC(Cn1cncn1)(Cn1cncn1)c1ccc(F)cc1F.[Na+]"
> 10000 µg/mL

###

test: Solubility in pharmaceutical solvents (Table 3); assay type: physicochemical; conditions: N-methylpyrrolidone, organic solvent or mixture; read-out: solubility
Property measured: solubility

Find the measured solubility of CCOP(=O)(O[C@H]1CC[C@@]2(C)C(=CC[C@H]3[C@@H]4CC[C@H]([C@H](C)CCCC(C)C)[C@@]4(C)CC[C@@H]32)C1)OC(Cn1cncn1)(Cn1cncn1)c1ccc(F)cc1F (stereo partly shown) and report it.
≥ 227 mg/mL

###

Assay: Solubility in pharmaceutical solvents (Table 3)
Format: physicochemical
Details: Benzylalcohol, organic solvent or mixture; read-out: solubility
From the text: The values within brackets in Table 3 correspond to the calculated fluconazole concentrations taking into account the molecular weights of the relevant fosfluconazole prodrug and fluconazole itself.
Property measured: solubility

Return reported solubility. Input compound: CCOP(=O)(O[C@H]1CC[C@@]2(C)C(=CC[C@H]3[C@@H]4CC[C@H]([C@H](C)CCCC(C)C)[C@@]4(C)CC[C@@H]32)C1)OC(Cn1cncn1)(Cn1cncn1)c1ccc(F)cc1F (stereo partly shown) [Example 5]
≥ 227 mg/mL

###

assay: Chemical stability in pharmaceutical solvents (weight % remaining in solution, LCMS); assay type: physicochemical; conditions: H2O (pH = 10), 2 days
Property measured: weight percentage that remained in solution (% w/w)

Below, each entry is followed by its recorded weight percentage that remained in solution result.
Read off the recorded weight percentage that remained in solution for "CCCCCCCCCOCCOP(=O)([O-])OC(Cn1cncn1)(Cn1cncn1)c1ccc(F)cc1F.[Na+]"
95.0

Entry "CCCCCCCCCOP(=O)([O-])OC(Cn1cncn1)(Cn1cncn1)c1ccc(F)cc1F.[Na+]" needs its weight percentage that remained in solution filled in; supply it.
99.4

Give weight percentage that remained in solution for the following compound: "C[N+](C)(C)CCOP(=O)([O-])OC(Cn1cncn1)(Cn1cncn1)c1ccc(F)cc1F"
99.7

A: CCCCCCCCCC(=O)OCCOP(=O)([O-])OC(Cn1cncn1)(Cn1cncn1)c1ccc(F)cc1F.[Na+]
B: CCCCCCCCCC(=O)OCC(COP(=O)([O-])OC(Cn1cncn1)(Cn1cncn1)c1ccc(F)cc1F)OC(=O)CCCCCCCCC.[Na+] (centres unmarked)
// select label with min value of measured weight percentage that remained in solution from [ A , B ] Bench note: the answer is the label of the chosen record.
B

###

Assay: Solubility of fosfluconazole derivatives in pharmaceutical solvents (Table 2)
Type: physicochemical
Conditions: water (pH 7), aqueous buffer, thermodynamic from solid; H2O (pH = 7), 25° C.
Description: The solubility determination method used was as follows: a suspension of 6 mg of the tested fosfluconazole derivative in 500 μl of the applicable pharmaceutical solvent was rotatively shaken for 24 hours at 800 rpm at 25° C. The saturated fosfluconazole derivative solution was filtered (0.45 μm) and 150 μl of the filtrate was diluted in dimethylsulfoxide (50 μl DMSO). […]
Entries and their measured solubility at 24 h follow.

Worked cases, solubility at 24 h given:
For the molecule "CCCCCCCCCOCCOP(=O)([O-])OC(Cn1cncn1)(Cn1cncn1)c1ccc(F)cc1F.[Na+]" , report solubility at 24 h.
> 10000 µg/mL

Tell me measured solubility at 24 h for "CCCCCCCCCOP(=O)([O-])OC(Cn1cncn1)(Cn1cncn1)c1ccc(F)cc1F.[Na+]" please.
> 10000 µg/mL

Now turn to the next molecule.
Report measured solubility at 24 h; entry is "C[N+](C)(C)CCOP(=O)([O-])OC(Cn1cncn1)(Cn1cncn1)c1ccc(F)cc1F"
6800 µg/mL

###

experiment: Chemical stability in pharmaceutical solvents (weight % remaining in solution, LCMS); type: physicochemical; settings: H2O/Kleptose HPB (60/40), 2 days
Property measured: weight percentage that remained in solution (% w/w)

Give the reported value of weight percentage that remained in solution for this record: "CCCCCCCCCOP(=O)([O-])OC(Cn1cncn1)(Cn1cncn1)c1ccc(F)cc1F.[Na+]"
99.2

Supply measured weight percentage that remained in solution of CCCCCCCCCC(=O)OCC(COP(=O)([O-])OC(Cn1cncn1)(Cn1cncn1)c1ccc(F)cc1F)OC(=O)CCCCCCCCC.[Na+] (centres unmarked) in your reply.
95.3

Return reported weight percentage that remained in solution. Input compound: "CCCCCCCCCOCCOP(=O)([O-])OC(Cn1cncn1)(Cn1cncn1)c1ccc(F)cc1F.[Na+]"
94.7

Output measured weight percentage that remained in solution for this item: "CCCCCCCCCC(=O)OCCOP(=O)([O-])OC(Cn1cncn1)(Cn1cncn1)c1ccc(F)cc1F.[Na+]"
98.2

Please report weight percentage that remained in solution for the following compound: "C[N+](C)(C)CCOP(=O)([O-])OC(Cn1cncn1)(Cn1cncn1)c1ccc(F)cc1F"
98.8

###

experiment: Solubility in pharmaceutical solvents (Table 3); format: physicochemical; settings: Benzylbenzoate, organic solvent or mixture; read-out: solubility
Property measured: solubility (mg/mL)
Number in mg/mL, nothing else.

Read the entry CCOP(=O)(O[C@H]1CC[C@@]2(C)C(=CC[C@H]3[C@@H]4CC[C@H]([C@H](C)CCCC(C)C)[C@@]4(C)CC[C@@H]32)C1)OC(Cn1cncn1)(Cn1cncn1)c1ccc(F)cc1F (stereo partly shown) and write its reported solubility.
90
